target: human MC-R1B receptor (splice variant of the human melanocortin-1 receptor, 382 amino acids) (human); assay: displacement of 200 pM [125I]-NDP-αMSH from crude membranes of COS-7 cells expressing human MC-R1B
measurement.label: pIC50
To interpret pIC50, take it as minus log10 of a concentration measured in moles per litre.

SYSMEHFRWGKPVGKKRRPVKVYPNGAEDESAEAFPLEF (peptide, UniProt P01189 138-176, looked up) [ACTH] | 8.30

Next binder, pIC50 to be filled in.
Measured pIC50 of SYSMEHFRWGKPV (peptide, UniProt P01189 138-150, looked up) [αMSH] : 8.30
